Compiled literature Ki, tested on Carbonic anhydrase 2 (Homo sapiens, UniProt P00918).

Below are worked cases with known answers.
COc1ccccc1-c1nc(-c2ccccc2)c(-c2ccccc2)n1-c1ccc(S(N)(=O)=O)cc1: > 100000 nM
NS(=O)(=O)c1ccc(-n2nnc(S(=O)(=O)c3ccccc3)c2-c2ccc(Br)cc2)cc1: 220 nM
NS(=O)(=O)c1ccc(N2N=C(c3ccc(F)cc3)CC2c2ccccc2)cc1 (centres unmarked): 587 nM
NS(=O)(=O)c1ccc(CNC(=O)[C@@H](CSc2ccccc2)NC(=O)OCc2ccccc2)cc1: 3.3 nM
COc1cc(C(=O)OCCCCCCCN(C)CCOC(=O)COc2ccc3ccc(=O)oc3c2)cc(OC)c1OC: > 10000 nM

Form field Ki for item `NS(=O)(=O)c1ccc(O)c(NC(=O)c2ccc3[nH]ccc3c2)c1` on Carbonic anhydrase 2 (Homo sapiens, UniProt P00918): 680 nM

Form field Ki for item `O=c1ccc2cc(-n3cc(CNc4ccc(Cl)cc4[N+](=O)[O-])nn3)ccc2o1` on Carbonic anhydrase 2 (Homo sapiens, UniProt P00918): > 50000 nM

Form field Ki for item `COc1cc(C(=O)c2ccn(-c3cccc(S(N)(=O)=O)c3)c2)cc(OC)c1OC` on Carbonic anhydrase 2 (Homo sapiens, UniProt P00918): 84.2 nM

Form field Ki for item `NS(=O)(=O)c1ccc(CCN2C(=O)/C(=C/c3ccccc3)C=C2c2ccccc2)cc1` on Carbonic anhydrase 2 (Homo sapiens, UniProt P00918): 368 nM

Form field Ki for item `CCOC(=O)CCNC(=O)N[C@@H](C)C(=O)Nc1ccc2c(C)cc(=O)oc2c1` on Carbonic anhydrase 2 (Homo sapiens, UniProt P00918): > 10000 nM

Form field Ki for item `Oc1ccc(/C=C/c2ccc(C(F)(F)F)cc2)cc1` on Carbonic anhydrase 2 (Homo sapiens, UniProt P00918): 43400 nM

Form field Ki for item `O=c1ccc2cc(-n3cc(CNc4ccc(F)cc4)nn3)ccc2o1` on Carbonic anhydrase 2 (Homo sapiens, UniProt P00918): > 50000 nM

Form field Ki for item `COc1ccc(-c2ccccc2)cc1NC(=O)Nc1ccc(S(N)(=O)=O)cc1` on Carbonic anhydrase 2 (Homo sapiens, UniProt P00918): 5030 nM

Form field Ki for item `COc1cc(/C=C/C(=O)OCCCCCN(CCCOC(=O)/C=C/c2cc(OC)c(OC)c(OC)c2)CCCOc2ccc3ccc(=O)oc3c2)cc(OC)c1OC` on Carbonic anhydrase 2 (Homo sapiens, UniProt P00918): > 10000 nM

Form field Ki for item `Cc1ccc(NC(=O)NCc2cn(CCCS(N)(=O)=O)nn2)cc1` on Carbonic anhydrase 2 (Homo sapiens, UniProt P00918): 2970 nM

Form field Ki for item `CCn1c2ccccc2c2nnc(SCc3cn(-c4ccc(S(N)(=O)=O)cc4)nn3)nc21` on Carbonic anhydrase 2 (Homo sapiens, UniProt P00918): 72 nM

Form field Ki for item COc1cccc(C2=NN(c3ccc(S(N)(=O)=O)cc3)C(c3ccc4c(c3)OCO4)C2)c1 (centres unmarked) on Carbonic anhydrase 2 (Homo sapiens, UniProt P00918): 6900 nM

----------
Compiled literature Ki, tested on Carbonic anhydrase 2 (Homo sapiens).

Below are worked cases with known answers.
COc1ccc(/C=C/c2ccc(O)cc2)cc1: > 100 µM
NS(=O)(=O)c1ccc(-n2c(-c3cccs3)nc(-c3ccccc3)c2-c2ccccc2)cc1: > 100 µM
O=C(OCCCCCN(CCCOC(=O)c1c2ccccc2cc2ccccc12)CCCOc1ccc2ccc(=O)oc2c1)c1c2ccccc2cc2ccccc12: > 10 µM
COc1ccc(NCc2cn(-c3ccc4oc(=O)ccc4c3)nn2)cc1: > 50 µM

Form field Ki for item `COc1ccc(CCNC(=S)NC(=O)c2cc3ccccc3oc2=O)cc1OC` on Carbonic anhydrase 2 (Homo sapiens): > 10 µM

Form field Ki for item `Cc1cc(=O)oc2c(CN3CCN(c4ccc(Cl)cc4)CC3)c(O)ccc12` on Carbonic anhydrase 2 (Homo sapiens): > 10 µM

Form field Ki for item `NS(=O)(=O)c1ccc(CCNC(=O)C[C@@H](NC(=O)OCc2ccccc2)C(=O)NCCc2ccc(S(N)(=O)=O)cc2)cc1` on Carbonic anhydrase 2 (Homo sapiens): 0.215 µM

Form field Ki for item `CC(=O)Nc1ccc(C(=O)NC(=S)Nc2ccc(S(N)(=O)=O)cc2)cc1` on Carbonic anhydrase 2 (Homo sapiens): 0.701 µM
